The reported numbers originate from patent EP0485890A2.

Tested on: Lysophospholipase (Phospholipase B)
Assay: In vitro enzyme test: inhibition of released exoenzymes (phospholipase) of Candida albicans blastoconidia on egg-yolk agar
Assay type: cell-based
Details: Konzentration 10 µg/ml; Candida albicans Stamm 200/175
value_kind: % Hemmung der Phospholipase

>>> value_measured("CCCCN(CC(Cn1ccnc1)OCc1ccc(Cl)cc1)c1ccc(Cl)cc1 (centres unmarked)")
"24%"
>>> value_measured("CCN(CC(Cn1ccnc1)OCC=C(C)CCC=C(C)C)c1ccc(Cl)cc1 (centres unmarked)")
"100%"
>>> value_measured("CCCCCCCCN(CC(Cn1ccnc1)OCc1ccc(Cl)cc1)c1ccc(Cl)cc1 (centres unmarked)")
"45%"
>>> value_measured("Clc1ccc(COC(CN2CCCc3ccccc32)Cn2ccnc2)cc1 (centres unmarked)")
"50%"
>>> value_measured("CC(=NOCC(Cn1ccnc1)OCc1ccc(Cl)cc1)c1ccc(Cl)cc1 (centres unmarked)")
"24,3%"
>>> value_measured("CC(=NOCC(Cn1ccnc1)Sc1ccc(Cl)cc1)c1ccc(Cl)cc1 (centres unmarked)")
"50%"
>>> value_measured("COC(CN(Cc1ccc(Cl)cc1Cl)c1ccc(Cl)cc1)Cn1ccnc1 (centres unmarked)")
"16,7%"
>>> value_measured("CCCCCCCCOC(CN(CC)c1ccc(Cl)cc1)Cn1ccnc1 (centres unmarked)")
"75,0%"
>>> value_measured("CCN(CC(O)Cn1ccnc1)c1ccc(Cl)c(Cl)c1 (centres unmarked)")
"33,3%"
>>> value_measured("CCN(CC(Cn1ccnc1)OCc1ccc(Cl)cc1)c1cccc(Cl)c1 (centres unmarked)")
"27,3%"
>>> value_measured("CC(=NOCC(Cn1ccnc1)OCc1ccc(Cl)cc1)c1ccc(Cl)cc1Cl (centres unmarked)")
"20,6%"
>>> value_measured("C=CCN(CC(Cn1ccnc1)OCc1ccc(Cl)cc1)c1ccc(Cl)cc1 (centres unmarked)")
"10,7%"
>>> value_measured("CC(C)N(CC(Cn1ccnc1)OCc1ccc(Cl)cc1)c1ccc(Cl)c(Cl)c1 (centres unmarked)")
"25%"
>>> value_measured("CC(=NOCC(Cn1ccnc1)OCc1ccc(Cl)cc1Cl)c1ccc(Cl)cc1Cl (centres unmarked)")
"18,2%"
>>> value_measured("CCN(CC(Cn1ccnc1)OCc1ccc(Cl)cc1Cl)c1ccc(Cl)cc1 (centres unmarked)")
"23,1%"
>>> value_measured("CC(=NOCC(Cn1ccnc1)OCc1ccc(Cl)cc1Cl)c1ccc(Cl)cc1 (centres unmarked)")
"35,7%"
>>> value_measured("CCN(CC(Cn1ccnc1)OCc1cccc(Cl)c1)c1ccc(Cl)cc1 (centres unmarked)")
"12,7%"

---

// reported % Hemmung der Phospholipase for each item listed
System: Lysophospholipase (Phospholipase B)
Assay: In vitro enzyme test: inhibition of released exoenzymes (phospholipase) of Candida albicans blastoconidia on egg-yolk agar
Assay type: cell-based
Conditions: Konzentration 50 µg/ml; Candida albicans Stamm 200/175
value_kind: % Hemmung der Phospholipase

>>> value_measured("Clc1ccc(OCC(Cn2ccnc2)N2CCN(Cc3ccc(Cl)cc3Cl)CC2)cc1 (stereo not drawn)")
"38,6%"
>>> value_measured("CCN(CC(Cn1ccnc1)SCc1ccc(Cl)cc1)c1cccc(C(F)(F)F)c1 (stereo not drawn)")
"71,4%"
>>> value_measured("CCN(CC(Cn1ccnc1)OCc1ccc(Cl)cc1Cl)c1cccc(Cl)c1 (stereo not drawn)")
"61,5%"
